The reported numbers originate from patent US10975119B2.

Biological target: Caspase-4 (Homo sapiens, UniProt P49662)
Construct: mixing the compounds with the respective active caspases; purchased BioVision K154-100
Sequence (P49662 81-270 limits assumed): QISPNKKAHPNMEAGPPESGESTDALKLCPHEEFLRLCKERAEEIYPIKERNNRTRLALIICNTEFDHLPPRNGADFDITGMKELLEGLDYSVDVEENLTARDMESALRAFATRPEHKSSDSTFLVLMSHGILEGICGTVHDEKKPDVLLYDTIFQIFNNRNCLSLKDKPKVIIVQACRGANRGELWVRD
Sequence (P49662 290-377 limits assumed): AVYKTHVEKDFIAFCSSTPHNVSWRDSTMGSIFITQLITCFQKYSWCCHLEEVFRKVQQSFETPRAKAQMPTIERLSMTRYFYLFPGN
Assay: Caspase-4 inhibitor screening assay (BioVision kit, LEVD-AFC)
Format: biochemical
Conditions: read-out: % Inhibition at 100 uM Casp4
From the text: […]
measured-quantity: inhibition at 100 µM (%)
Expressed in %, but write only the number.

The measured inhibition at 100 µM that "CC(C)(C)OC(=O)CC[C@H](NC(=O)OC(C)(C)C)C(=O)N[C@H](/C=C/S(C)(=O)=O)CC(=O)OC(C)(C)C" showed for Caspase-4 (Homo sapiens, UniProt P49662) is 4

The observed inhibition at 100 µM for "CS(=O)(=O)/C=C/[C@H](CC(=O)O)NC(=O)[C@@H](N)CCC(=O)O" when tested with Caspase-4 (Homo sapiens, UniProt P49662) stands at 0

Record "CC(C)[C@H](NC(=O)[C@@H](NC(=O)[C@H](CC(=O)O)NC(=O)OCc1ccccc1)c1ccccc1)C(=O)N[C@H](/C=C/S(C)(=O)=O)CCC(=O)O" / Caspase-4 (Homo sapiens, UniProt P49662), inhibition at 100 µM recorded as 0

Here "CC(C)(C)[C@H](NC(=O)c1ccc2ccccc2n1)C(=O)N1CC[C@@H]1C(=O)N[C@H](/C=C/S(C)(=O)=O)CC(=O)O" was tested on Caspase-4 (Homo sapiens, UniProt P49662), and its inhibition at 100 µM came to 100

The compound "CC(C)[C@H](NC(=O)c1ccc2ccccc2n1)C(=O)N[C@H](/C=C/S(C)(=O)=O)CC(=O)O" , tested on Caspase-4 (Homo sapiens, UniProt P49662), showed inhibition at 100 µM of 0

# value of inhibition at 100 µM, Caspase-4 (Homo sapiens, UniProt P49662), item "CC(C)(C)[C@H](NC(=O)c1ccc2ccccc2n1)C(=O)N1CCC[C@@H]1C(=O)N[C@H](/C=C/S(C)(=O)=O)CC(=O)O" = 100

Reported inhibition at 100 µM (Caspase-4 (Homo sapiens, UniProt P49662)) for entry "CC(C)[C@H](NC(=O)OCc1ccccc1)C(=O)N[C@H](/C=C(\Cl)S(C)(=O)=O)CC(=O)O" is 6

The value of inhibition at 100 µM recorded for "CC(C)[C@H](NC(=O)OCc1ccccc1)C(=O)N[C@H](/C=C/S(C)(=O)=O)CC(=O)O" when tested on Caspase-4 (Homo sapiens, UniProt P49662) reads 2

Note to self: inhibition at 100 µM of CC(C)(C)[C@H](NC(=O)c1ccc(N)c(Cl)c1)C(=O)N1CCCC1C(=O)N[C@H](/C=C/S(C)(=O)=O)CC(=O)O (stereo in doubt) with Caspase-4 (Homo sapiens, UniProt P49662) was 100

# inhibition at 100 µM measured on Caspase-4 (Homo sapiens, UniProt P49662) for item CS(=O)(=O)/C=C/[C@H](CC(=O)O)NC(=O)C1CCCN1C(=O)[C@@H](NC(=O)[C@H](CC(=O)O)NC(=O)OCc1ccccc1)C1CC1 (stereo in doubt) = 100

Bench note, Caspase-4 (Homo sapiens, UniProt P49662): "CS(=O)(=O)/C=C/[C@H](CC(=O)O)NC(=O)[C@H](CCC(=O)O)NC(=O)c1ccc2ccccc2n1" , inhibition at 100 µM reads 0

I looked up "CC(C)[C@H](NC(=O)[C@H](Cc1cn(C)c2ccccc12)NC(=O)[C@H](CC(=O)O)NC(=O)OCc1ccccc1)C(=O)N[C@H](/C=C/S(C)(=O)=O)CC(=O)O" and its inhibition at 100 µM for Caspase-4 (Homo sapiens, UniProt P49662) was 99
